A collection of compounds and their measured inhibition in vivo at 10 mg/kg
System: collagen induced platelet aggregation
Experiment: Inhibition of ex vivo collagen induced aggregation after administration to dogs
Type: in vivo, dogs (Beagles)
Details: Canis lupus familiaris, Platelet, dog, dose 10 mg/Kg, intragastric or intravenous, read-out: Max % Inhibition
Supply the numeric figure in %, leaving out any unit text.

INSERT INTO assay_data (compound, readout_value) VALUES
  ('N=C(N)c1ccc(CCCCC(=O)NC(CC(=O)OC2CCCCC2)c2cccnc2)cc1 (stereo not drawn)', 87);

Look up inhibition in vivo at 10 mg/kg for this compound: CCOC(=O)CC(C)NC(=O)CCCCc1ccc(C(=N)N)cc1 (stereo not drawn)
90

Same question for CC(CC(=O)O)NC(=O)CCCCc1ccc(C(=N)N)cc1 (stereo not drawn) please.
80

Follow-up item: CCOC(=O)CC(NC(=O)CCCCc1ccc(C(=N)N)cc1)c1ccc2c(c1)OCO2 (stereo not drawn)
100

Can you check CCOC(=O)CC(NC(=O)CCCCc1ccc(C(=N)N)cc1)c1ccccc1 (stereo not drawn) next?
83

Consider next the compound CCOC(=O)CC(NC(=O)CCCCc1ccc(C(=N)N)cc1)c1cccnc1 (stereo not drawn) in the same way.
100
